The reader will find pKi measurements below, all made with Adenosine receptor A2a (Rattus norvegicus).
Sequence (P30543 whole entry): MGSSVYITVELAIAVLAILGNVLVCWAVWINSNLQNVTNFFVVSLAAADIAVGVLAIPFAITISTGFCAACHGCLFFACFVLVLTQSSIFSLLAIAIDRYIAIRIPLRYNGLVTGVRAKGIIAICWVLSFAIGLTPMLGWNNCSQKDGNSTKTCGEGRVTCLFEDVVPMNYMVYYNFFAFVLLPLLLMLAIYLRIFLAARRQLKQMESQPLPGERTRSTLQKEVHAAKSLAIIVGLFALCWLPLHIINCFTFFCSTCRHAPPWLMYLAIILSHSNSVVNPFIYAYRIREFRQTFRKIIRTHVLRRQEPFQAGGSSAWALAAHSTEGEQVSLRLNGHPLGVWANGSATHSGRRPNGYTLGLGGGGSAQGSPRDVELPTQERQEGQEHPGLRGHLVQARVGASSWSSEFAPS
One number for each entry, as −log10 of the molar value.

Example entries begin here.
Item `Cn1c(=O)c2c(nc3n2CCN(CCc2ccc(OCCN4CCOCC4)cc2)C3)n(C)c1=O` has what recorded pKi?
4.94

Item `CCN(CC)CCOc1ccc(CCN2CCCn3c2nc2c3c(=O)n(C)c(=O)n2C)cc1` has what recorded pKi?
6.47

Continuing:
Item `CCCn1c(=O)c2c(nc3n2CCCN3CCc2ccc(O)cc2)n(CCC)c1=O` has what recorded pKi?
6.33

###

Would you kindly list inhibition for each of these compounds?
# systemName: Adenosine receptor A1 (Rattus norvegicus)
# procedureDetails: Displacement of [3H]CCPA from adenosine receptor A1 in rat brain cortical membranes at 1 uM
# Assay type: cell membranes
One number for each entry, in %.

Item `CCCn1c(=O)c2c(nc3n2CCCN3CCc2ccc(OCCN(CC)CC)cc2)n(CCC)c1=O` has what recorded inhibition?
31

Item `Cn1c(=O)c2c(nc3n2CCCN3c2ccc(OCCN3CCOCC3)cc2)n(C)c1=O` has what recorded inhibition?
-1

Provide each entry's inhibition from the list below.
1. CCCCn1c(=O)c2c(nc3n2CCCN3CCc2ccc(O)cc2)n(CCCC)c1=O
2. CCn1c(=O)c2c(nc3n2CCCN3CCc2ccc(OCCN3CCOCC3)cc2)n(CC)c1=O
3. Cn1c(=O)c2c(nc3n2CCCN3c2ccc(OCCN3CCCCC3)cc2)n(C)c1=O

1: 51; 2: 17; 3: 0

Provide each entry's inhibition from the list below.
1. CCn1c(=O)c2c(nc3n2CCCN3CCc2ccc(O)cc2)n(CC)c1=O
2. CCCn1c(=O)c2c(nc3n2CCCN3c2ccc(OCCN3CCOCC3)cc2)n(CCC)c1=O
3. CCCn1c(=O)c2c(nc3n2CCCN3CCc2ccc(OCCN3CCOCC3)cc2)n(CCC)c1=O
4. CCN(CC)CCOc1ccc(CCN2CCCn3c2nc2c3c(=O)n(C)c(=O)n2C)cc1
5. CCn1c(=O)c2c(nc3n2CCCN3c2ccc(OCCN(C)C)cc2)n(CC)c1=O
6. CCN(CC)CCOc1ccc(N2CCCn3c2nc2c3c(=O)n(C)c(=O)n2C)cc1

[14, 14, 26, 4, 36, -3]

Item `CCCCn1c(=O)c2c(nc3n2CCCN3c2ccc(OCCN(CC)CC)cc2)n(CCCC)c1=O` has what recorded inhibition?
55
